# credit: paper PMC10466331

subject.of.test: human recombinant lysosomal α-glucosidase GAA (Myozyme) (Homo sapiens, UniProt P10253)
Construct: purchased Genzyme
assay.overview: fluorogenic substrate (4MU-α-D-glucopyranoside) assay on rhGAA
Format: biochemical
experimental.context: 4MU-α-glucoside substrate, pH 4.0; mean ± SD, 3 technical replicates; read-out: IC50 GAA
measure: IC50

test.smiles	assay.value
OC[C@@H]1[C@@H](O)[C@H](O)[C@@H](O)CN1CCCCCOCc1ccc(-c2ccccc2)cc1	1.18 µM

###

subject.of.test: ER α-glucosidase GANAB (from Pompe disease Fibroblast lysates) (Homo sapiens)
Construct: Cellular homogenates of Pompe fibroblasts (1 mg mL^−1) were used as protein source for GANAB; endogenous in cells; host or cells: Pompe disease fibroblasts (homogenate)
Sequence (Q14697 29-944): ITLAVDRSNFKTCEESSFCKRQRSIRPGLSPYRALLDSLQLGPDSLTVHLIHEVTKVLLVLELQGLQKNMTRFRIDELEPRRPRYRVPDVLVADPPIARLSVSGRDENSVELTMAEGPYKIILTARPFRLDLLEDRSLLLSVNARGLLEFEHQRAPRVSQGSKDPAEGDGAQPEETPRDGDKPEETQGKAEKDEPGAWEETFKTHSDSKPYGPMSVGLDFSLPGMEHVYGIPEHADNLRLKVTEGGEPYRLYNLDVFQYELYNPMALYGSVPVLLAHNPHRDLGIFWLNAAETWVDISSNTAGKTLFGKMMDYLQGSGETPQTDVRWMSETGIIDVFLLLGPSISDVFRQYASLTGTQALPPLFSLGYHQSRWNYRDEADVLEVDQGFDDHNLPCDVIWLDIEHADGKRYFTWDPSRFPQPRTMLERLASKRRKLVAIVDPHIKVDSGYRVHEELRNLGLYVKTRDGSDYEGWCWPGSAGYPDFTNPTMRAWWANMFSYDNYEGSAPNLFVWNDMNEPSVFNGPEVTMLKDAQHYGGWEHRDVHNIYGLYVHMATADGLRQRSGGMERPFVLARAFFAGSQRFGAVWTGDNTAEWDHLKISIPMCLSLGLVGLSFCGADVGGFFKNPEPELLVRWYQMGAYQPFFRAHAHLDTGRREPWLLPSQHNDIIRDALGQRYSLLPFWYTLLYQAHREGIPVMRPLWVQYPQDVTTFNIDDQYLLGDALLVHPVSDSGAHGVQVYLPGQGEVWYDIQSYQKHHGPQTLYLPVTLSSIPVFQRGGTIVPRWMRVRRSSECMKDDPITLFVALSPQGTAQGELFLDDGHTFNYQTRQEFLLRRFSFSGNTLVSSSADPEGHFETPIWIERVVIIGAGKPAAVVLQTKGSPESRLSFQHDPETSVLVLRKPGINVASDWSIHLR
Sequence (P14314 15-528 partner): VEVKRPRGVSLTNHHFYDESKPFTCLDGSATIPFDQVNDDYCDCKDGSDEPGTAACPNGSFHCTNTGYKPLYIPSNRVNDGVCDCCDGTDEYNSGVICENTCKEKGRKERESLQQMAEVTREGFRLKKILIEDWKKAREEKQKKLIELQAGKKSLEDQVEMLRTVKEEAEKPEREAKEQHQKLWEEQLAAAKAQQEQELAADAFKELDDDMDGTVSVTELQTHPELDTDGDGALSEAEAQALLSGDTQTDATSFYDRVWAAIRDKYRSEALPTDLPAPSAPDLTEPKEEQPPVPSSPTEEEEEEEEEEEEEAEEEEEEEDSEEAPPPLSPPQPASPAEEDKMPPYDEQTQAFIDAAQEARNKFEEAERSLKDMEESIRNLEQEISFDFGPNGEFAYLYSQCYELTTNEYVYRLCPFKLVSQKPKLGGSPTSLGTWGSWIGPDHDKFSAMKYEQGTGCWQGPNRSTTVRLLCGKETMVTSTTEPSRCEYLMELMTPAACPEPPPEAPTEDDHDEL
assay.overview: fluorogenic substrate (4MU-α-D-glucopyranoside) assay on GANAB in Pompe fibroblast homogenates;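 note: inhibitor preincubated 30 min at 37 °C with homogenate, then GANAB activity read after 2 h with 3.0 mM fluorogenic substrate in McIlvaine buffer containing 0.1% BSA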
Type: biochemical
experimental.context: Table S2; 4-MU alpha glucoside substrate; listed as 281; read-out: IC50 on GANAB

test.smiles	subject.of.test	IC50 / µM
CCCCCOCCCCCN1C[C@H](O)[C@@H](O)[C@H](O)[C@H]1CO	ER α-glucosidase GANAB (from Pompe disease Fibroblast lysates) (Homo sapiens)	3.7
